Attribution: paper PMC9582731

- assayExplanation: in vitro
- Assay type: cell-based
- reportedConditions: mouse
pIC50: −log10 of the molar value.
quantityMeasured: pIC50

[[record]]
smilestext = "COC1=C[C@@H]2[C@@H]3Cc4ccc(OC)c(O)c4[C@]2(CCN3C)CC1=O"
reportedvalue = "< 4.00"

[[record]]
smilestext = "COc1ccc2c(c1)c(CC(=O)O)c(C)n2C(=O)c1ccc(Cl)cc1"
reportedvalue = "< 4.00"

